- Experimental System: full-length HAQ STING (Homo sapiens (Human), UniProt Q86WV6, G230A/H232R/R293Q/R71H)
- Sequence (Q86WV6 other isoform, or with tags, fused parts or gaps, stated change not applied): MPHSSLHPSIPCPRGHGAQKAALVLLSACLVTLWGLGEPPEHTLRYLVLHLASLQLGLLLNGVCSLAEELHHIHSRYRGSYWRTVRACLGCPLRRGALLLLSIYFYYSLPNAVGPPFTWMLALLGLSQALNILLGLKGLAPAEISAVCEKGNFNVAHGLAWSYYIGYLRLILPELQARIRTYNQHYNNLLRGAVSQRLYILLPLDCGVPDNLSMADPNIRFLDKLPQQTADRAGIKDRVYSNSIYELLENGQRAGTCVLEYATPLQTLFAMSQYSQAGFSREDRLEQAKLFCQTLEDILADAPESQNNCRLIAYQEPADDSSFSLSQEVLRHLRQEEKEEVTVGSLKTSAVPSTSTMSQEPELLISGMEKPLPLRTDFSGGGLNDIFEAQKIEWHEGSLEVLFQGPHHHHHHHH
- Procedure Details: 3H-cGAMP filtration binding assay (HAQ STING)
- Cond: competition with tritiated cGAMP, HAQ STING membrane; read-out: EC50 (nM), 3H-cGAMP filtration binding assay for HAQ STING
Measured Endpoint: EC50 (nM)

(a) Nc1ncnc2c1ncn2[C@@H]1O[C@@H]2COP(=O)(O)O[C@H]3C[C@H](n4cnc5c(=O)[nH]cnc54)O[C@@H]3COP(=O)(O)O[C@@H]1[C@@H]2O
(b) Nc1nc2c(ncn2[C@@H]2O[C@@H]3COP(=O)(S)O[C@H]4[C@H](F)[C@H](n5nnc6c(=O)[nH]cnc65)O[C@@H]4COP(=O)(S)O[C@@H]2C3)c(=O)[nH]1 (stereo partly drawn)
(c) Nc1nc2c(ncn2[C@@H]2O[C@@H]3COP(=O)(O)O[C@H]4[C@@H](O)[C@H](n5cnc6c(N)nc(F)nc65)O[C@@H]4COP(=O)(O)O[C@@H]2[C@@H]3O)c(=O)[nH]1
// rank the listed molecules by EC50, lowest value first List the labels in the requested order.
b, c, a
(b: 6.3 nM, c: 24.6 nM, a: 64.7 nM)

Taken from patent US11453697B1.
